These entries and their values trace back to ChEMBL document CHEMBL4145557.

EC30 values, listed per item
Species: Oryctolagus cuniculus
assayDetails: Activation of troponin in rabbit fast skeletal muscle fibers assessed as increase in calcium stimulated activity by measuring compound concentration that produces 30% increase in tension at 25% of calcium concentration needed for maximal response by […]
Write the number in nM without appending the unit.

CCC(CC)n1c(=O)[nH]c2ncc(C)nc21: 4400
C#Cc1cnc2nc(O)n(C(CC)CC)c2n1 [TIRASEMTIV]: 300
CC(C)n1c(=O)[nH]c2ncc(Br)nc21: 2200

Record summary for C[C@@H](c1ccccc1)n1c(=O)[nH]c2ncc(-c3ccco3)nc21 : reported EC30 = 30600

Record summary for CCC(CC)n1c(=O)[nH]c2ncc(Br)nc21 : reported EC30 = 400

Record summary for CSc1cnc2[nH]c(=O)n([C@@H](C)c3ccccc3)c2n1 : reported EC30 = 3800

----------
assayDetails: Extraction ratio in human liver microsomes measured up to 90 mins by HPLC/MS/MS analysis
Type: ADME, microsome
assaySetup: read-out: ERH
quantityName: hepatic extraction ratio at 1.5 h

These recorded examples may help you get a feel for the data.
CCC(CC)n1c(O)nc2ncc(C)nc21: < 0.2
CCC(CC)n1c(O)nc2ncc(C#N)nc21: < 0.2
CCC(CC)n1c(O)nc2ncc(Br)nc21: < 0.2
CCC(CC)n1c(=O)[nH]c2ncc(Cl)nc21: < 0.2
CCC(CC)n1c(O)nc2ncc(OC)nc21: < 0.2
CCC(CC)n1c(O)nc2ncc(C(F)(F)F)nc21: < 0.2
C#Cc1cnc2nc(O)n(C(CC)CC)c2n1 [TIRASEMTIV]: < 0.2
C[C@@H](c1ccccc1)n1c(O)nc2ncc(Br)nc21: < 0.3
CC[C@H](C)n1c(O)nc2ncc(Br)nc21: < 0.2
CC(C)(C)n1c(O)nc2ncc(Br)nc21: 0.2

Now for the compound whose hepatic extraction ratio at 1.5 h we want.
Record summary for C=Cc1cnc2[nH]c(=O)n(C(CC)CC)c2n1 : reported hepatic extraction ratio at 1.5 h = 0.5

----------
assayDetails: Volume of distribution at steady state in Sprague-Dawley rat at 1 mg/kg, po or 1 mg/kg iv via bolus by HPLC method
Assay type: ADME, organism-based
assaySetup: Sprague-Dawley, in vivo, read-out: Vdss
quantityName: Vd

Record summary for C#Cc1cnc2nc(O)n(C(CC)CC)c2n1 : reported Vd = 0.8 to 2.6 L/kg

----------
assayDetails: Extraction ratio in rat liver microsomes measured up to 90 mins by HPLC/MS/MS analysis
Type: ADME, microsome
assaySetup: read-out: ERH
hepatic extraction ratio at 1.5 h values, listed per item
// return a plain number; no unit text

CC[C@H](C)n1c(O)nc2ncc(Br)nc21: 0.3
CCC(CC)n1c(O)nc2ncc(Br)nc21: 0.4

Record summary for CCC(CC)n1c(O)nc2ncc(C)nc21 : reported hepatic extraction ratio at 1.5 h = 0.7

Record summary for CCC(CC)n1c(=O)[nH]c2ncc(Cl)nc21 : reported hepatic extraction ratio at 1.5 h = 0.4

----------
Species on record: Oryctolagus cuniculus
assayDetails: Activation of troponin in rabbit fast skeletal muscle fibers assessed as increase in calcium stimulated activity by measuring compound concentration that produces 30% increase in tension at 25% of calcium concentration needed for maximal response by […]
quantityName: EC30

These recorded examples may help you get a feel for the data.
C[C@@H](c1ccccc1)n1c(=O)[nH]c2ncc(Br)nc21: 3 µM
C=Cc1cnc2[nH]c(=O)n([C@@H](C)c3ccccc3)c2n1: 4.6 µM
C=Cc1cnc2[nH]c(=O)n(C(CC)CC)c2n1: 1.1 µM
CCC(CC)n1c(=O)[nH]c2ncc(Cl)nc21: 0.6 µM
CC(C)(C)n1c(=O)[nH]c2ncc(Br)nc21: 4.6 µM

Record summary for CC[C@H](C)n1c(=O)[nH]c2ncc(Br)nc21 : reported EC30 = 5.1 µM
